// provenance: ChEMBL document CHEMBL1146004

Can you tell me solubility for the items I'm about to list?
- procedure_summary: physchem
- experimental_conditions: buffer, pH 2.2
Give bare numbers, in µM.

For each listed entry, give its solubility.
1. CC1c2c(c(O)c3ncccc3c2OS(=O)(=O)N(C)C)C(=O)N1Cc1ccc(F)cc1 (configuration not stated)
2. COc1c2c(c(O)c3ncccc13)C(=O)N(Cc1ccc(F)cc1)C21CC1

### Response
[11, 49]

====

Listed here: molecules with reported pIC50 for UniProt Q7ZJM1.
Sequence (Q7ZJM1 whole entry): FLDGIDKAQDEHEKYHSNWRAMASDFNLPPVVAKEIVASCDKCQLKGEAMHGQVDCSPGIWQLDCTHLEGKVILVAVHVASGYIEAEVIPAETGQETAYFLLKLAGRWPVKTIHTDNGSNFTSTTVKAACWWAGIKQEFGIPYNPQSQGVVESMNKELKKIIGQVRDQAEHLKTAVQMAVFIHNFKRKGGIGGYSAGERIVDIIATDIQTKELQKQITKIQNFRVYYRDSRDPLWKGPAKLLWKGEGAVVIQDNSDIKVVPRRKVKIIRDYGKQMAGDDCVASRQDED
Numbers only, as −log10 of the molar value.

Reference set, count: 5
CN(C)S(=O)(=O)Oc1c2c(c(O)c3ncccc13)C(=O)N(Cc1ccc(F)cc1)C21CC1    6.45
COc1c2c(c(O)c3ncccc13)C(=O)N(Cc1ccc(F)cc1)C2OC (stereo not given)    7.19
COc1c2c(c(O)c3ncccc13)C(=O)N(Cc1ccc(F)cc1)C2(C)C    6.68
COc1c2c(c(O)c3ncccc13)C(=O)N(Cc1ccc(F)cc1)C2SCCC(=O)N1CCNCC1 (stereo not given)    7.23
COc1c2c(c(O)c3ncccc13)C(=O)N(Cc1ccc(F)cc1)C2SCCC(=O)O (stereo not given)    6.53

Batch lookup, pIC50 per entry.
1. C=C1c2c(c(O)c3ncccc3c2OC)C(=O)N1Cc1ccc(F)cc1
2. CN(C)S(=O)(=O)Oc1c2c(c(O)c3ncccc13)C(=O)N(Cc1ccc(F)cc1)C2
3. COC(=O)CCSC1c2c(c(O)c3ncccc3c2OC)C(=O)N1Cc1ccc(F)cc1 (stereo not given)
4. C=C1c2c(c(O)c3ncccc3c2OS(=O)(=O)N(C)C)C(=O)N1Cc1ccc(F)cc1
5. O=C1c2c(c(O)c3ncccc3c2O)C(=O)N1Cc1ccc(F)cc1
6. COc1c2c(c(O)c3ncccc13)C(=O)N(Cc1ccc(F)cc1)C2O (stereo not given)

### Response
1: 6.82; 2: 6.59; 3: 6.51; 4: 6.38; 5: 7.10; 6: 7.44

Hello, I would appreciate it if you could give pIC50 for each entry below.
1. CC1c2c(c(O)c3ncccc3c2OS(=O)(=O)N(C)C)C(=O)N1Cc1ccc(F)cc1 (stereo not given)
2. COc1c2c(c(O)c3ncccc13)C(=O)N(Cc1ccc(F)cc1)C21CC1
3. COc1c2c(c(O)c3ncccc13)C(=O)N(Cc1ccc(F)cc1)C2
4. COc1c2c(c(O)c3ncccc13)C(=O)N(Cc1ccc(F)cc1)C2C (stereo not given)

### Response
1: 6.09; 2: 8.15; 3: 7.22; 4: 7.06

====

- procedure_summary: physchem
- experimental_conditions: buffer, pH 7.3
measured_parameter: solubility

Examples with answers:
O=C1c2c(c(O)c3ncccc3c2O)C(=O)N1Cc1ccc(F)cc1    < 1.4 µM
COc1c2c(c(O)c3ncccc13)C(=O)N(Cc1ccc(F)cc1)C2C (configuration not stated)    3 µM
COc1c2c(c(O)c3ncccc13)C(=O)N(Cc1ccc(F)cc1)C21CC1    26 µM
CN(C)S(=O)(=O)Oc1c2c(c(O)c3ncccc13)C(=O)N(Cc1ccc(F)cc1)C21CC1    2.1 µM
C=C1c2c(c(O)c3ncccc3c2OS(=O)(=O)N(C)C)C(=O)N1Cc1ccc(F)cc1    < 1 µM

Kindly give each listed record's solubility.
1. CN(C)S(=O)(=O)Oc1c2c(c(O)c3ncccc13)C(=O)N(Cc1ccc(F)cc1)C2
2. CC1c2c(c(O)c3ncccc3c2OS(=O)(=O)N(C)C)C(=O)N1Cc1ccc(F)cc1 (configuration not stated)

### Response
< 2.3 µM
2 µM

====

- procedure_summary: physchem
- experimental_conditions: buffer, pH 2.2
measured_parameter: solubility (µM)
Numbers only, in µM.

Recorded solubility, per entry:
CN(C)S(=O)(=O)Oc1c2c(c(O)c3ncccc13)C(=O)N(Cc1ccc(F)cc1)C2    7
CN(C)S(=O)(=O)Oc1c2c(c(O)c3ncccc13)C(=O)N(Cc1ccc(F)cc1)C21CC1    11

Next compound, solubility to be filled in.
### Prompt Fill blank: measured solubility of the compound COc1c2c(c(O)c3ncccc13)C(=O)N(Cc1ccc(F)cc1)C2C (stereo not given) is ____.
### Response 193
